Tested on: RAW 264.7 cells
assay-info: Cell viability (CellTiter 96 AQueous One) of LPS-challenged RAW 264.7 cells
Assay type: cell-based, mouse
Design: key: NS=not significant; a “+” sign=anti-inflammatory or increased cell numbers; a “−” sign=cell toxicity or pro-inflammatory
recorded-conditions: 10 μM
measured-property: Viability

compound	result
CC1(C)[C@@H]2CC[C@]1(C)[C@@H](N1C(=O)C3C4C=CC(C4)C3C1=O)C2 (stereo partly shown)	−
Nc1cccc2c1CN([C@@H]1C[C@H]3CC[C@@H]1C3)C2=O	NS
CC1(C)[C@@H]2CC[C@]1(C)[C@@H](N1C=C3C(=CC=C/C3=N\OO)C1=O)C2	NS
O=C1c2cccc([N+](=O)[O-])c2CN1[C@@H]1C[C@H]2CC[C@@H]1C2	−
